System: Staphylococcus aureus
// MIC lookup, one value per entry
Output spec: scalar in µg/mL, unitless text.

Would you please look over these solved cases?
{"columns": ["compound", "MIC / µg/mL"],
 "data": [
  ["CNn1cc(C(=O)O)c(=O)c2cc(F)c(N3CCN(C)CC3)cc21 [AMIFLOXACIN]", 1.6],
  ["CCn1cc(C(=O)O)c(=O)c2cc(F)c(-n3cccc3)cc21 [IRLOXACIN]", 0.4],
  ["CCn1cc(C(=O)O)c(=O)c2cc(F)c(N3CCC(C(F)(F)F)CC3)cc21", 0.1],
  ["CCn1cc(C(=O)O)c(=O)c2cc(F)c(N3CCN(C(C)=N)CC3)cc21", 6.3],
  ["CCn1cc(C(=O)O)c(=O)c2cc(F)c(N3CCCC3)cc21", 0.8]
]}

With Staphylococcus aureus as the test system, CCn1cc(C(=O)O)c(=O)c2c(N)nc(N3CCN(C)CC3)nc21 showed MIC of 100

With Staphylococcus aureus as the test system, CCn1cc(C(=O)O)c(=O)c2ccc(N3CCN(CC#N)CC3)cc21 showed MIC of 25

With Staphylococcus aureus as the test system, CCn1cc(C(=O)O)c(=O)c2cc(F)c(N3CCN(CCN)CC3)cc21 showed MIC of 12.5

###

Quick record: gyrase cleavage conc, DNA gyrase (Escherichia coli) (UniProt P0AES6+P0AES4).
Output spec: scalar in µg/mL, unitless text.

With DNA gyrase (Escherichia coli) (UniProt P0AES6+P0AES4) as the test system, CCn1cc(C(=O)O)c(=O)c2cc(F)c(N3CCCC3)nc21 showed gyrase cleavage conc of 2.5

With DNA gyrase (Escherichia coli) (UniProt P0AES6+P0AES4) as the test system, CCn1cc(C(=O)O)c(=O)c2cc([N+](=O)[O-])c(C)nc21 showed gyrase cleavage conc of 50

With DNA gyrase (Escherichia coli) (UniProt P0AES6+P0AES4) as the test system, CCn1cc(C(=O)O)c(=O)c2cc(F)c(N3CCC(N4CCCC4)CC3)cc21 showed gyrase cleavage conc of 7.5

With DNA gyrase (Escherichia coli) (UniProt P0AES6+P0AES4) as the test system, CCn1cc(C(=O)O)c(=O)c2c(N)nc(N3CCN(C)CC3)nc21 showed gyrase cleavage conc of 100

With DNA gyrase (Escherichia coli) (UniProt P0AES6+P0AES4) as the test system, CCn1cc(C(=O)O)c(=O)c2cc(F)c(N3CCCC3)cc21 showed gyrase cleavage conc of 5

With DNA gyrase (Escherichia coli) (UniProt P0AES6+P0AES4) as the test system, CCn1cc(C(=O)O)c(=O)c2cc(F)c(/C=N/N3CCN(C)CC3)nc21 showed gyrase cleavage conc of 100

With DNA gyrase (Escherichia coli) (UniProt P0AES6+P0AES4) as the test system, CCn1cc(C(=O)O)c(=O)c2cc(F)c(N3CCC(N4CCN(C)CC4)CC3)cc21 showed gyrase cleavage conc of 50

With DNA gyrase (Escherichia coli) (UniProt P0AES6+P0AES4) as the test system, CCn1cc(C(=O)O)c(=O)c2cc(F)c(N3CCC(C(F)(F)F)CC3)cc21 showed gyrase cleavage conc of 5

With DNA gyrase (Escherichia coli) (UniProt P0AES6+P0AES4) as the test system, CCn1cc(C(=O)O)c(=O)c2cc(F)c(N3CCN(C)CC3)c(F)c21 showed gyrase cleavage conc of 2.5

With DNA gyrase (Escherichia coli) (UniProt P0AES6+P0AES4) as the test system, CCn1cc(C(=O)O)c(=O)c2cc(F)c(F)c(F)c21 showed gyrase cleavage conc of 38
